# assay.target: human GPR40 (Homo sapiens)
# Sequence (O14842 whole entry): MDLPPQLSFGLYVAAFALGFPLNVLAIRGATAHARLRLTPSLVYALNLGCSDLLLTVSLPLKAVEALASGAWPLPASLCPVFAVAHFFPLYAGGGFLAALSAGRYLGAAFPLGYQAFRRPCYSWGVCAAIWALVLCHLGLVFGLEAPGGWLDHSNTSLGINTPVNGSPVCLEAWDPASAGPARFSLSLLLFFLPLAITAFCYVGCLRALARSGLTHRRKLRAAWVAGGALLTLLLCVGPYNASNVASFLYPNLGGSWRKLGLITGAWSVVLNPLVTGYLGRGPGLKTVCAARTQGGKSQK
# assay.explanation: FDSS-based intracellular calcium assay (Human GRP40 in vitro assay)
# Format: cell-based
# Design: 3xFLAG; expressed in transfected cells
# applied.conditions: cells expressing GPR40, intracellular Ca2+ response, FDSS reader; read-out: hGPR40 EC50
Structures can show the parent of a compound that is named as a salt.
readout.name: EC50 (nM)
Note: unit nM is implicit; provide only the numeric part.

As a guide, the following entries are already answered.
>>> experimental_result("COc1cc(N2CCC(Oc3ccc(N4C[C@H](OC)[C@@H](C)[C@@H]4CC(=O)O)cn3)C(C)C2)c(C2CCCC2(C)C)cn1 (single isomer, unassigned) [Example 150, Isomer 2, HCl]")
110
>>> experimental_result("COc1cc(N2CCC(Oc3ncc(N4C[C@H](OC)[C@@H](C)[C@@H]4CC(=O)O)cc3OC(C)C)C(C)C2)c(Cl)cn1 (stereo partly shown) [Example 167]")
45
>>> experimental_result("COc1ccc(F)c(N2CCC(Oc3ccc(N4C[C@H](C(F)(F)F)C[C@@H]4CC(=O)O)cn3)CC2)c1 [Example 49]")
280
>>> experimental_result("COc1ccc(F)c(N2C[C@@H](C)[C@H](Oc3ccc(N4C[C@H](OC)C[C@@H]4CC(=O)O)cc3)[C@@H](C)C2)c1 [Example 55, HCl]")
980
>>> experimental_result("CCOc1ccc(F)c(N2CCC(Oc3ccc(N4C[C@H](OC)[C@@H](C(C)C)[C@@H]4CC(=O)O)cc3)CC2)c1 [Example 89, TFA]")
320
>>> experimental_result("COc1cc(N2CCC(Oc3ccc(N4C[C@H](OC)C[C@@H]4CC(=O)O)cc3)C(CC#N)C2)c(Cl)cn1 (stereo partly shown) [Example 93, TFA]")
2300
>>> experimental_result("COc1ccc(F)c(N2CC[C@@H](COc3ccc(N4C[C@H](C(F)(F)F)C[C@@H]4CC(=O)O)cc3)C2)c1 [Example 11, HCl]")
630
>>> experimental_result("COc1ccc(F)c(N2CCC(Oc3ccc(N4CCCC4CC(=O)O)cc3)CC2)c1 (single isomer, unassigned) [Example 48, Isomer 1]")
4100

-- ask Which EC50 value is on record for CCOc1ccc(F)c(N2CCC(Oc3ccc(N4C[C@H](C(F)(F)F)C[C@@H]4CC(=O)O)cc3)C(Cc3ccccc3)C2)c1 (single isomer, unassigned) [Example 36, Isomer 1, HCl] ?
-- reply 6000

-- ask Please give the measured EC50 for this compound: COc1cc(N2CCC(Oc3ccc(N4C[C@H](OC)C[C@@H]4CC(=O)O)cc3)C(C)C2)c(F)cn1 (single isomer, unassigned) [Example 83, Isomer 1]
-- reply 4800

-- ask Need EC50 of COc1ccc(C)c(N2CCC(Oc3ccc(N4C[C@H](OC)C[C@@H]4CC(=O)O)cc3)CC2)c1 [Example 57, TFA] , thanks.
-- reply 160

-- ask Could you share which EC50 value was measured for COc1ccc(Br)c(N2CCC(Oc3ccc(N4C[C@H](OC)C[C@@H]4CC(=O)O)cc3)CC2)c1 [Example 58, TFA] ?
-- reply 140

-- ask So what's the measured EC50 for this one? COc1cc(N2CCC(Oc3ccc(N4C[C@H](C)[C@@H](C)[C@@H]4CC(=O)O)cn3)C(C)C2)c(Cl)cn1 (stereo partly shown) [Example 106]
-- reply 170
